- protocol: yeast display, Sf9 membrane polyspecificity reagent, FACS + sequencing; frameworks hold sequencing errors
endpointLabel: polyreactivity (PSR sort gate)

- residueCodes: "QVQLVDSGGGLVQAGGSLRLSCAASGHTLAVNAMGWYRPAPGKERELVAAITSSGGSTSYADSEKGRFTISRDNAKNTVYLQMNSLKPEDTAVYYCAAEQRYPLIILYDYWGQGTQVTVSS"
  result: "low polyreactivity"
- residueCodes: "QVQLVESGGGLVQAGGSLRLSCAASGITFNYYTMVWYRQAPGKERELVARITISGGSTYYADSVKGRFTISRDNAKNTVDFQMYSLKPEDTAVYYCNVRLYGYRHDYWGQGTQVTVSS"
  result: "high polyreactivity"
- residueCodes: "QVQLVESGGGLVQAGGSLRLSCAASGRTFWVNAMGWYRQAPGKERELVAAITSSVSSTYYADSVKGRFTISRDNAKNTVYLQMNSLKPEDTAVYYCAAGVGRGMYYWGQGTQVTVSS"
  result: "low polyreactivity"
- residueCodes: "QVQLVESGGGLFQAGGSLRISCAATGSTFGSYAMGWYRQAPGKERELVAAISVGGGSTYYADSVKGRFTISRDNAKNTVYLKMNSLKPEDTAVFYCAATAPRWHHFYHWGQGTQVTVSS"
  result: "high polyreactivity"

Continue with the next sequence.
// returns reported polyreactivity (PSR sort gate) for input QVQLEESGGGFVQAGGSLRLSCAASGFIFSSNAMGWYRQAPGKERELVASISSGGSTNYADSVKGRFTISRDNAKNTVYLQMNSLKPEDTAVYYCAADGISLYATAYDYWGQGTQVTVSS
low polyreactivity
